assay: reducers of endogenous Her2 protein level, primary screen, SKBR3 breast tumor cells, AlphaScreen, ATP viability (AID 461); conditions: 18-24 h, measured here: SKBR3 viability, ATP luminescence, at 10 µM;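 also: percent of carrier control wells set as 100% viability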
Please respond with reported viability for every item in the list.
Numeric only. Scale: %

Sample CCOC(=O)C1CCCN(C(=O)c2cc(=O)c3ccccc3o2)C1 (stereo unspecified) — what was its viability?
94.5

Sample O=C(CSc1nnc2ccccn12)NCCN1C(=O)CSC1=O — what was its viability?
134

Sample COc1ccccc1NC(=O)C1=C(C)Nc2nc(CCCO)nn2C1c1cccnc1 (stereo unspecified) — what was its viability?
132

Sample CCOC(=O)C(NC(=O)Nc1ccccc1)(OCC)C(F)(F)F (stereo unspecified) — what was its viability?
114

Sample Nc1cc(CN2C(=O)c3ccccc3C2=O)cc(Cl)c1O — what was its viability?
102

Sample Cn1c(SCc2cccc3ccccc23)nnc1-c1ccco1 — what was its viability?
76

----------
Please respond with reported viability for every item in the list.
assay: HUVEC growth inhibition – cell-based, human, primary screen (AID 575); settings: HUVEC proliferation, CellTiter-Glo luminescence, 72 h; at 10 µM; stronger effect = lower value;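 also: 100% = median of untreated cell wells with 0.1% DMSO on each plate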
Numeric only. Scale: %

Sample NC(=O)c1ccccc1NC(=O)CN1CCOCC1 — what was its viability?
104

Sample Cc1c(NC(=O)C(C)OC(=O)COc2cccc3c2OC(C)(C)C3)c(=O)n(-c2ccccc2)n1C (stereo unspecified) — what was its viability?
124

Sample CC(=O)c1ccc(NS(=O)(=O)c2ccccc2)cc1 — what was its viability?
91.5

Sample COc1ccc(C(=O)NCc2ccccc2OC)cc1 — what was its viability?
93.8

Sample C/C=C/Cn1c(Br)nc2c1c(=O)[nH]c(=O)n2C — what was its viability?
90.7

Sample NC(=O)NC(c1ccccc1)c1ccccc1F (stereo unspecified) — what was its viability?
91.6

----------
experiment: 384-well plate pilot, post-Golgi transport modulator project, inhibition of yeast transport mutant growth (AID 636); details: absorbance 615 nm, about 18 h, stronger effect = higher value
readoutLabel: inhibition (%)
Numeric only. Scale: %

Sample COc1cccc(NC(=O)Cc2nnc(SCC(=O)c3ccccc3)n2C)c1 — what was its inhibition?
-2.24

Sample COc1ccc(C(=O)NCc2ccccc2OC)cc1 — what was its inhibition?
-6.58

Sample CCCC1(C(=O)OCC)NC(c2ccc(N(C)C)cc2)C2C(=O)N(c3ccccc3)C(=O)C21 (stereo unspecified) — what was its inhibition?
-7.11

Sample COc1ccc2[nH]c(=O)c(CN(C(=O)c3ccncc3)C(C)C)cc2c1 — what was its inhibition?
-3.12

Sample CCOC(=O)c1cccc(NC(=O)CSc2nc3ccccc3c(=O)n2CC)c1 — what was its inhibition?
-3.95

Sample CCn1nnc(NC(=O)c2cc3ccccc3o2)n1 — what was its inhibition?
-4.19

----------
test: growth suppression of PTEN-deleted HCT116, pilot screen, cell-based, HCT116 clonal line, CellTiter-Glo (AID 824); details: 60 h, at 10 µM, stronger effect = lower value;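 also: 0% = 20 µM Hyamine control and 100% = vehicle cell control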
Inconclusive results are not listed.
1.0 if viability is below 90%. 0.0 if not; exact matches included in 0.0.

Does O=C1N/C(=N/c2ccccn2)SC1Cc1ccccc1 (stereo unspecified) have viability strictly under 90%?
0.0

Does Cc1sc(NC(=O)CCCC(=O)O)c(C#N)c1C have viability strictly under 90%?
0.0

Does O=C(O)C1C2C=CC3(CN(Cc4ccco4)C(=O)C13)O2 (stereo unspecified) have viability strictly under 90%?
0.0

Does CC1(C)CC(NC(=O)C23CCC(C)(C(=O)C2)C3(C)C)CC(C)(C)N1 (stereo unspecified) have viability strictly under 90%?
0.0

Does O=C(Cn1cc2c(n1)CCCCC2)NCc1ccccc1 have viability strictly under 90%?
1.0

Does O=C(Nc1cccnc1)c1ccc(CN2CCc3ccccc3C2)cc1 have viability strictly under 90%?
0.0

Does O=C(CCS(=O)(=O)c1ccccc1)Nc1nccs1 have viability strictly under 90%?
1.0

Does Cn1c(C(=O)N2CCN(C(=O)c3ccco3)CC2)cc2c(=O)n(C)c3ccccc3c21 have viability strictly under 90%?
1.0

----------
Please respond with reported viability for every item in the list.
assay: growth suppression of PTEN-deleted HCT116, pilot screen, cell-based, HCT116 clonal line, CellTiter-Glo (AID 824); details: 60 h, at 10 µM, stronger effect = lower value;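 also: 0% = 20 µM Hyamine control and 100% = vehicle cell control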
Results filed as inconclusive are left out.
Numeric only. Scale: %

Sample CCN1CCN(C(=O)C(NS(=O)(=O)c2ccc3nc(C)sc3c2)C(C)C)CC1 (stereo unspecified) — what was its viability?
95.2

Sample CCS(=O)(=O)NCCc1csc(-c2cccnc2)n1 — what was its viability?
102

Sample Cc1onc(-c2ccccc2)c1C(=O)Nc1nnc(N(C)Cc2ccccc2)s1 — what was its viability?
88.8

Sample COc1cc(C(=O)Nc2cccc(-c3nc4ccccc4o3)c2C)cc(OC)c1OC — what was its viability?
98.7

Sample Cc1ccc(-c2nn3c(C)nnc3s2)cc1NC(=O)c1ccc(Br)o1 — what was its viability?
93

Sample O=C(Nc1nc2c(s1)CCCC2)c1ccc2ncsc2c1 — what was its viability?
76.7

Sample Cc1onc(-c2ccccc2)c1C(=O)Nc1ccc2c(C)cc(=O)oc2c1 — what was its viability?
103

Sample COc1cccc(C(c2sc3ncnn3c2O)N2CC(C)OC(C)C2)c1 (stereo unspecified) — what was its viability?
95.7

Sample Cc1cccc(OCc2nnc(SCC(=O)Nc3ccc(C)c(C)c3)o2)c1 — what was its viability?
94.2

Sample Cc1ccc2c(c1)c1c(n2CC(O)Cn2c(C)nc3ccccc32)C(=O)CCC1 (stereo unspecified) — what was its viability?
62.2

Sample CC(C)n1c(SCCCc2ccccc2)nc2c1c(=O)[nH]c(=O)n2C — what was its viability?
87.5

----------
assay: inhibitors of the yeast RAM network, pilot screen, dse1pr::URA3 reporter, 5-FOA selection (AID 869);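 also: 0% = DMSO wells with no growth and 100% = 10 µM 1-NA-PP1 with full growth; RAM network block rescues cells from 5-FOA so hits raise OD615 growth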; conditions: S. cerevisiae dse1pr::URA3 5-FOA growth, OD615, 2 d; at 10 µM; stronger effect = higher value; strain carries analog-sensitive mutant Cbk1 kinase
readoutLabel: inhibition (%)
Numeric only. Scale: %

Sample O=C(c1ccc(CS(=O)(=O)c2ccc(Br)cc2)o1)N1CCOCC1 — what was its inhibition?
2.23

Sample O=C(Nc1cccc(F)c1)c1ccc(S(=O)(=O)N2CCOCC2)cc1 — what was its inhibition?
1.13

Sample CP(=O)(COC(=O)c1ccccc1)COC(=O)c1ccccc1 — what was its inhibition?
3.13

Sample CCCCNC(=O)C1C2C=CC3(CN(Cc4ccc(C)cc4)C(=O)C13)O2 (stereo unspecified) — what was its inhibition?
0.08

Sample CCN1CCCC1CNC(=O)Cn1cnc2sc(C)c(S(=O)(=O)N3CCC(C)CC3)c2c1=O (stereo unspecified) — what was its inhibition?
2.9

Sample Cc1cc(C)n(-c2cc(=O)n(C)c(=O)n2C)n1 — what was its inhibition?
0.755

Sample c1coc(CNc2c3c(nc4ccccc24)CCC3)c1 — what was its inhibition?
-0.205

Sample Cc1ccc(O)c(-c2cc(C(F)(F)C(F)F)[nH]n2)c1 — what was its inhibition?
0.725

Sample COc1cc(C2CC(=O)N3CN(Cc4ccco4)CSC3=C2C#N)ccc1OCc1ccccc1 (stereo unspecified) — what was its inhibition?
1.65

Sample COc1cccc(NC(=O)CSc2ncnc3c2oc2ccccc23)c1 — what was its inhibition?
2.46

Sample C=C(C)CSc1nc2c(c(=O)[nH]c(=O)n2C)n1CCC(C)C — what was its inhibition?
1.38

----------
assay: viability gain of MRP-1-high H69AR cells under doxorubicin, pilot screen, MRP-1 activator project, CellTiter-Glo, duplicate (AID 807); conditions: H69AR viability with doxorubicin, CellTiter-Glo luminescence; at 10 µM; stronger effect = higher value;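 also: compound pretreatment 18-22 h then 72 h combined with doxorubicin; 0% = doxorubicin alone and 100% = vehicle without doxorubicin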
readoutLabel: viability increase (%)
Numeric only. Scale: %

Sample CCOc1ccc2nc(NC(=O)Nc3cccs3)sc2c1 — what was its viability increase?
-3.88

Sample COc1cccc(-c2nn(C)c3sc(C(=O)NCc4ccc5c(c4)OCO5)cc23)c1 — what was its viability increase?
-2.08

Sample CCOc1ccc(S(=O)(=O)N(C)c2ccc(OCC(=O)Nc3ccc4[nH]c(=O)[nH]c4c3)cc2)cc1 — what was its viability increase?
-4.94

Sample O=C1CSC(=S)N1Cc1cccnc1 — what was its viability increase?
-8.48

Sample COC(=O)CCc1nc2ccccc2[nH]c1=O — what was its viability increase?
-0.31

Sample CSc1nc2c(c(=O)n1-c1ccccc1)SCC2 — what was its viability increase?
-2.76

Sample Nc1nc2n(n1)C(c1ccccc1Cl)CC(c1ccc(F)cc1)N2 (stereo not drawn) — what was its viability increase?
-0.54

Sample CCOC(=O)c1ccccc1NC(=O)CC1Nc2ccccc2NC1=O (stereo not drawn) — what was its viability increase?
-8.1

Sample O=C(c1ccc(CS(=O)(=O)c2ccc(Br)cc2)o1)N1CCN(c2ncccn2)CC1 — what was its viability increase?
-4.3

Sample Cc1ccc(C(=O)CC(C(=O)O)c2cn(CCC#N)c3ccccc23)cc1 (stereo not drawn) — what was its viability increase?
-1.96

Sample O=C1CC(c2ccccc2)c2cc(O)ccc2O1 (stereo not drawn) — what was its viability increase?
3.84

Sample Cc1cc(NC(=O)c2cn(C3CCCCC3)c(=O)c3c2c2ccccc2n3C)no1 — what was its viability increase?
-3.21

Sample CCOC(=O)c1ccc(S(=O)(=O)N2CCN(CCC#N)CC2)cc1 — what was its viability increase?
1.42

Sample O=C(Nc1c(C(=O)N2CCCC2)cnn1-c1ccccc1)c1cccc(F)c1 — what was its viability increase?
-0.46

Sample CC(=O)c1cc(Cc2csc(C(C)=O)c2)cs1 — what was its viability increase?
-2.14

Sample O=C(CSc1ccc2nnc(-c3ccccn3)n2n1)NCc1ccc2c(c1)OCO2 — what was its viability increase?
-3.68

Sample CCOC(=O)CNC(=O)c1cn(CC)c(=O)c2cc(OC)c(OC)cc12 — what was its viability increase?
-2.48

Sample Cc1cc(C)n(-c2nnc(C)n2/N=C/c2ccccc2OCc2ccccc2Cl)n1 — what was its viability increase?
-5.89

Sample CCOc1ccccc1Nc1nc2ccccc2n2cnnc12 — what was its viability increase?
-6.33

Sample O=C(COc1cccc2ccccc12)N1CCN(c2ccccc2)CC1 — what was its viability increase?
1.21

Sample Cn1c(N)c(C(=O)COC(=O)Cc2ccsc2)c(=O)n(C)c1=O — what was its viability increase?
-0.79

Sample COc1ccc(Cl)cc1C(=O)Nc1cc(=O)n(C)c(=O)n1C — what was its viability increase?
-1.06

Sample CCOC(=O)c1ccc(NC(=O)N(CC)CC)cc1 — what was its viability increase?
-0.97

Sample Cn1cnnc1SCc1ccc(C(=O)O)cc1 — what was its viability increase?
-1.36

Sample COc1ccc(-c2cc(NCCc3ccncc3)n3ncnc3n2)cc1 — what was its viability increase?
-4.7

Sample COc1ccc(S(=O)(=O)N2CCC(C(=O)Nc3cccc(Cl)c3)CC2)cc1OC — what was its viability increase?
-3.54

Sample CCn1c(CCCNC(=O)c2cccs2)nc2ccccc21 — what was its viability increase?
-2.77

Sample Cc1c(C(=O)N(C)Cc2ccccc2)oc2ccc(S(=O)(=O)N3CCCC3)cc12 — what was its viability increase?
-5.85

Sample CCCCc1ccc(NC(=O)OC)cc1 — what was its viability increase?
3.48

Sample CCCCN1C(=O)C2C(c3ccc(OC)cc3O)NC(CC(C)C)(C(=O)O)C2C1=O (stereo not drawn) — what was its viability increase?
0.44

Sample N#CCCN(CCC#N)C(=O)c1ccc(Cl)cc1 — what was its viability increase?
-1.59

Sample COC(=O)C1C2C=CC3(CN(C(C)C)C(=O)C13)O2 (stereo not drawn) — what was its viability increase?
-1.07

Sample O=C(c1ccccn1)N1CCN(c2ccc(C(F)(F)F)cn2)CC1 — what was its viability increase?
0.37

Sample COc1ccccc1N1C(=O)N(C(C)=O)C2C1Nc1ccccc1N2C (stereo not drawn) — what was its viability increase?
-5.51

Sample COc1ccccc1CCNC(=O)c1cnn2c(C(F)F)cc(C)nc12 — what was its viability increase?
-0.37

Sample CCN1C(=S)SC(=O)C1=C1C=C(C)N(CCO)C(C)=C1 — what was its viability increase?
-2.35

Sample COc1ccc(-c2noc(-c3ccccc3F)n2)cc1 — what was its viability increase?
-3.21

Sample CCc1ccc(Nc2cc(C)nc3nc(C)nn23)cc1 — what was its viability increase?
-4.04

Sample COc1ccc(N2CC(O)=C(c3nc(C)cs3)C2=N)cc1 — what was its viability increase?
-4.67

Sample CC1(C)CC(=O)C=C(Nc2ccccc2F)C1 — what was its viability increase?
-2.25

Sample CCCCNC(=O)c1ccc(NC(=O)C2CCCO2)cc1 (stereo not drawn) — what was its viability increase?
-0.44

Sample CCn1c2ccccc2c2nnc(SCc3cc(=O)n4ccsc4n3)nc21 — what was its viability increase?
-2.35

Sample Oc1[nH]c2ccccc2c1C=Nc1ccc2c(c1)OCO2 — what was its viability increase?
-5.2

Sample CCCSc1nc2c(c(=O)n1CC)SC(C)C2 (stereo not drawn) — what was its viability increase?
-2.02

Sample COc1ccc(OC)c(Nc2cc(C)nc3nc(C)nn23)c1 — what was its viability increase?
-5.35

Sample Cc1c(C(=O)NCC(C)C)sc2nc(-c3ccc(F)cc3)cn12 — what was its viability increase?
1.99

Sample Cc1cccc(Nc2ncnc3nc[nH]c23)c1C — what was its viability increase?
-1.75

Sample CCN(CC)c1ccc(NC(=O)c2ccc(NC(=O)C3CCCO3)cc2)c(C)c1 (stereo not drawn) — what was its viability increase?
1.38

Reference for the values: PubChem BioAssay
